Tested on: KHYG-1 (IL-2 2.5 ng/mL)
Assay Overview: percent inhibition of viability; higher = more inhibition
Condition Details: 72 h; 1 nM
Endpoint Label: percent inhibition of viability
Your reply should be a number followed by the unit it is expressed in.

Request: So what's the measured percent inhibition of viability for this one? COc1ccc(C[C@H](NC(=O)[C@H](C)NC(=O)CN2CCOCC2)C(=O)N[C@@H](Cc2ccccc2)C(=O)C2(C)CO2)cc1 (stereo in doubt) [ONX-0914] (max concentration tested 10000 nM)
Response: -0.77%

Request: So what's the measured percent inhibition of viability for this one? Cc1cc(C(=O)NOCCO)c(Nc2ccc(I)cc2F)n(C)c1=O [AZD-8330] (max concentration tested 10000 nM)
Response: 4.36%

Request: So what's the measured percent inhibition of viability for this one? CN(c1ncccc1CNc1nc(Nc2ccc3c(c2)CC(=O)N3)ncc1C(F)(F)F)S(C)(=O)=O (max concentration tested 10000 nM)
Response: 1.46%

Request: So what's the measured percent inhibition of viability for this one? CC1=C(/C=C/C(C)=C/C=C/C(C)=C/C(=O)O)C(C)(C)CCC1 [Tretinoin] (max concentration tested 10000 nM)
Response: -3.1%

Request: So what's the measured percent inhibition of viability for this one? O=C(/C=C/c1cccnc1)NCCCCC1CCN(C(=O)c2ccccc2)CC1 [Daporinad] (max concentration tested 1000 nM)
Response: 0.47%

Request: So what's the measured percent inhibition of viability for this one? O=C1NC(=O)/C(=C/c2ccc3nccc(-c4ccncc4)c3c2)S1 (max concentration tested 10000 nM)
Response: -3.03%

====

Field: relative IC50. Provide a value for each of the compounds that follow.
System: normal primary NK cells, pool 3 (3 donors) (IL-2 2.5 ng/mL)
Assay Overview: relative IC50 (inflection point of fitted viability curve, relative to fitted max inhibition); higher = less sensitive
Condition Details: 72 h
Respond numerically; units are µM and should not be typed.

Request: So what's the measured relative IC50 for this one? O=c1cc(N2CCOCC2)oc2c(-c3ccccc3)cccc12
Response: 16.8

Request: So what's the measured relative IC50 for this one? CC(=O)NCC(=O)N1[C@@H]2CC[C@H]1c1ccc(Nc3ncc(C(F)(F)F)c(NC4CCC4)n3)cc12
Response: 1.31

Request: So what's the measured relative IC50 for this one? Cc1sc2c(c1C)C(c1ccc(Cl)cc1)=N[C@@H](CC(=O)Nc1ccc(O)cc1)c1nnc(C)n1-2
Response: 0.804

Request: So what's the measured relative IC50 for this one? Cc1[nH]c2ccccc2c1CCNCc1ccc(/C=C/C(=O)NO)cc1
Response: 0.0135

Request: So what's the measured relative IC50 for this one? COc1cccc2c1C(=O)c1c(O)c3c(c(O)c1C2=O)C[C@@](O)(C(C)=O)C[C@@H]3O[C@H]1C[C@H](N)[C@H](O)[C@H](C)O1
Response: 0.042

Request: So what's the measured relative IC50 for this one? CCN(CC)C(=S)SSC(=S)N(CC)CC
Response: 0.32

====

Test system: SNK-6 (IL-2 2.5 ng/mL)
Assay Overview: percent inhibition of viability; higher = more inhibition
Condition Details: 72 h; 10000 nM
# label = 1 if percent inhibition of viability < 90% else -1

Request: Confirm or reject: percent inhibition of viability of O=C(O)c1ccc(Nc2ncc3c(n2)-c2ccc(Cl)cc2C(c2c(F)cccc2F)=NC3)cc1 [MLN-8054] (max concentration tested 10000 nM) lies strictly below 90%
Response: 1

Request: Confirm or reject: percent inhibition of viability of O=C(Nc1ccncc1)C(=O)c1cn(Cc2ccc(Cl)cc2)c2ccccc12 [Indibulin] (max concentration tested 10000 nM) lies strictly below 90%
Response: 1

Request: Confirm or reject: percent inhibition of viability of CCCOc1ccn2c(C(C)=O)cc(-c3ccccc3S(C)(=O)=O)c2c1 [GSK2801] (max concentration tested 10000 nM) lies strictly below 90%
Response: 1

Request: Confirm or reject: percent inhibition of viability of CCc1c2c(nc3ccc(OC(=O)N4CCC(N5CCCCC5)CC4)cc13)-c1cc3c(c(=O)n1C2)COC(=O)[C@]3(O)CC [Irinotecan] (max concentration tested 10000 nM) lies strictly below 90%
Response: -1

Request: Confirm or reject: percent inhibition of viability of Cc1cc(C(=O)NOCCO)c(Nc2ccc(I)cc2F)n(C)c1=O [AZD-8330] (max concentration tested 10000 nM) lies strictly below 90%
Response: 1

Request: Confirm or reject: percent inhibition of viability of Cn1cnc2c(F)c(Nc3ccc(Br)cc3Cl)c(C(=O)NOCCO)cc21 [Selumetinib] (max concentration tested 10000 nM) lies strictly below 90%
Response: 1

Request: Confirm or reject: percent inhibition of viability of CN(c1ccccc1CNc1nc(Nc2ccc3c(c2)CC(=O)N3)ncc1C(F)(F)F)S(C)(=O)=O (max concentration tested 10000 nM) lies strictly below 90%
Response: 1

Request: Confirm or reject: percent inhibition of viability of S=c1[nH]cnc2nc[nH]c12 [Mercaptopurine] (max concentration tested 10000 nM) lies strictly below 90%
Response: -1

Request: Confirm or reject: percent inhibition of viability of Cc1[nH]c(/C=C2\C(=O)Nc3ccccc32)c(C)c1CCC(=O)O [Orantinib] (max concentration tested 10000 nM) lies strictly below 90%
Response: 1

Request: Confirm or reject: percent inhibition of viability of O=C(/C=C\n1cnc(-c2cc(C(F)(F)F)cc(C(F)(F)F)c2)n1)NNc1cnccn1 [Selinexor] (max concentration tested 10000 nM) lies strictly below 90%
Response: -1

Request: Confirm or reject: percent inhibition of viability of Cc1cc(Nc2cc(CN3CCOCC3)c3nc(C)c(Cc4ccc(Cl)cc4F)n3n2)n[nH]1 [Gandotinib] (max concentration tested 10000 nM) lies strictly below 90%
Response: 1

Request: Confirm or reject: percent inhibition of viability of CCOC(=O)CCNc1cc(N2CCc3ccccc3CC2)nc(-c2ccccn2)n1 [GSK-J4] (max concentration tested 100000 nM) lies strictly below 90%
Response: -1

Request: Confirm or reject: percent inhibition of viability of COc1ccc(C[C@H](NC(=O)[C@H](C)NC(=O)CN2CCOCC2)C(=O)N[C@@H](Cc2ccccc2)C(=O)C2(C)CO2)cc1 (stereo in doubt) [ONX-0914] (max concentration tested 10000 nM) lies strictly below 90%
Response: -1

Request: Confirm or reject: percent inhibition of viability of CC(=O)NCC(=O)N1[C@@H]2CC[C@H]1c1ccc(Nc3ncc(C(F)(F)F)c(NC4CCC4)n3)cc12 (max concentration tested 10000 nM) lies strictly below 90%
Response: -1

Request: Confirm or reject: percent inhibition of viability of Cc1sc2c(c1C)C(c1ccc(Cl)cc1)=N[C@@H](CC(=O)Nc1ccc(O)cc1)c1nnc(C)n1-2 [OTX015] (max concentration tested 10000 nM) lies strictly below 90%
Response: 1

Request: Confirm or reject: percent inhibition of viability of O=c1cc(N2CCOCC2)oc2c(-c3ccccc3)cccc12 (max concentration tested 100000 nM) lies strictly below 90%
Response: 1

Request: Confirm or reject: percent inhibition of viability of N#CC(c1ccnc(OCc2ccc(CN3CCOCC3)cc2)n1)c1nc2ccccc2s1 (stereo unspecified) [Bentamapimod] (max concentration tested 10000 nM) lies strictly below 90%
Response: 1

Request: Confirm or reject: percent inhibition of viability of O=NN(CCCl)C(=O)NCCCl [Carmustine] (max concentration tested 10000 nM) lies strictly below 90%
Response: 1

Request: Confirm or reject: percent inhibition of viability of O=C(Nc1ccc2[nH]nc(-c3ccncc3)c2c1)[C@@H]1CCN(CC(=O)N2CCN(c3ccc(-c4ncccn4)cc3)CC2)C1 (max concentration tested 10000 nM) lies strictly below 90%
Response: 1

Request: Confirm or reject: percent inhibition of viability of Cn1cc(C2=Nc3cc(NC(=O)C(N)C4CCCCC4)cc4c3C2=CNNC4=O)cn1 (stereo unspecified) (max concentration tested 10000 nM) lies strictly below 90%
Response: -1
